Reported half-life is given for each of the following compounds.
# assay.procedure: Half life of compound in human MIA PaCa-2 cell homogenate
# Format: ADME, tissue-based
readout.kind: half-life (min)

> print(dat)
                           smiles.structure  readout.kind  quantitative.result
1  N[C@@H](CC(=O)OC[C@H]1O[C@@H](n2cc(F)c(=O)[nH]c2=O)C[C@@H]1OC(=O)C[C@H](N)C(=O)O)C(=O)O     half-life                 11.3
2  N[C@@H](CCC(=O)OC[C@H]1O[C@@H](n2cc(F)c(=O)[nH]c2=O)C[C@@H]1OC(=O)CC[C@H](N)C(=O)O)C(=O)O     half-life                 17.5
3  CC(C)[C@H](N)C(=O)OC[C@H]1O[C@@H](n2cc(F)c(=O)[nH]c2=O)C[C@@H]1O     half-life                 11.3
4  O=c1[nH]c(=O)n([C@H]2C[C@H](O)[C@@H](CO)O2)cc1F     half-life                 15.6

====

# assay.procedure: Half life of compound in PBS buffer at pH 7.4 at 200 uM by HPLC analysis
# Assay type: physicochemical
readout.kind: half-life at 200 µM (h)

> print(dat)
                           smiles.structure  quantitative.result
1  N[C@@H](CCC(=O)O[C@H]1C[C@H](n2cc(F)c(=O)[nH]c2=O)O[C@@H]1CO)C(=O)O                 3.05
2  CC(C)[C@H](N)C(=O)O[C@H]1C[C@H](n2cc(F)c(=O)[nH]c2=O)O[C@@H]1CO                 3.12
3  N[C@@H](CC(=O)OC[C@H]1O[C@@H](n2cc(F)c(=O)[nH]c2=O)C[C@@H]1OC(=O)C[C@H](N)C(=O)O)C(=O)O                 1.64
4  N[C@@H](CCC(=O)OC[C@H]1O[C@@H](n2cc(F)c(=O)[nH]c2=O)C[C@@H]1OC(=O)CC[C@H](N)C(=O)O)C(=O)O                 1.82
5  N[C@@H](CC(=O)O[C@H]1C[C@H](n2cc(F)c(=O)[nH]c2=O)O[C@@H]1CO)C(=O)O                 2.98
6  CC(C)[C@H](N)C(=O)OC[C@H]1O[C@@H](n2cc(F)c(=O)[nH]c2=O)C[C@@H]1O                 3.39

====

# assay.procedure: Drug uptake in Xenopus laevis oocytes at 0.5 mM incubated for 10 mins by HPLC analysis
# Format: ADME, cell-based
# condition.parameters: oocyte, 500 µM
# note: exactly 0.3 nmol/mg/min is not below, so it is FALSE; use TRUE for Drug uptake strictly under it

> print(dat)
                           smiles.structure  class
1  O=c1[nH]c(=O)n([C@H]2C[C@H](O)[C@@H](CO)O2)cc1F   TRUE
2  N[C@@H](CCC(=O)O[C@H]1C[C@H](n2cc(F)c(=O)[nH]c2=O)O[C@@H]1CO)C(=O)O   TRUE
3  CC(C)[C@H](N)C(=O)OC[C@H]1O[C@@H](n2cc(F)c(=O)[nH]c2=O)C[C@@H]1O  FALSE
4  CC(C)[C@H](N)C(=O)OC[C@H]1O[C@@H](n2cc(F)c(=O)[nH]c2=O)C[C@@H]1OC(=O)[C@@H](N)C(C)C  FALSE
5  N[C@@H](CCC(=O)OC[C@H]1O[C@@H](n2cc(F)c(=O)[nH]c2=O)C[C@@H]1OC(=O)CC[C@H](N)C(=O)O)C(=O)O  FALSE
6  CC(C)[C@H](N)C(=O)O[C@H]1C[C@H](n2cc(F)c(=O)[nH]c2=O)O[C@@H]1CO  FALSE
